Task for the reader: assign each of the following molecules its reported AUC0-∞.
# Assay: In vivo pharmacokinetic experiment in mice
# Condition context: C57 mice, 5 mg/kg i.v., plasma
Numbers only, in ngh/mL.

State the recorded AUC0-∞ for this entry: Cl.N[C@]1(c2ccc(C(F)(F)F)cc2)CCC[C@H](O)C1=O [Compound 51]
6567

Given the molecule Cl.N[C@@]1(c2ccccc2Cl)CCC[C@@H](O)C1=O [(2R,6R)-HNK, (2R, 6R)-HNK, reference compound] , what is its reported AUC0-∞?
2096

Entry Cl.N[C@@]1(c2cccc(OC(F)(F)F)c2F)CCC[C@@H](O)C1=O [Compound 64] has what AUC0-∞?
4838

Then this molecule:
# AUC0-∞ lookup, item Cl.N[C@@]1(c2ccc(C(F)(F)F)cc2)CCC[C@@H](O)C1=O [Compound 50]
3075
